# Tested on: SW 1271 complex tumor spheroid viability
# assay_explanation: Anticancer human tumor SW 1271 cell line growth inhibition;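 note: spheroids exposed to agents for seven days before readout; percent of DMSO vehicle control luminescence so 100% = vehicle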
# condition_details: second compound 0.0949 µM; first compound 10 µM; stronger effect = lower value
For each entry below, report its viability, T/C value.
The reply should be a number in %, with the unit left off.

Requested field: viability, T/C. Item: COc1cc(C)[nH]c(=O)c1CN1CCc2c(Cl)cc(C(OC)C3COC3)c(Cl)c2C1=O (stereo unspecified) + CC[C@@]1(O)C(=O)OCc2c1cc1n(c2=O)Cc2cc3c(CN(C)C)c(O)ccc3nc2-1
23.5

And then COc1ccc([C@@H](O)c2cc(-c3ncnc4cc(N5CCOCC5)ccc34)c(F)cc2Cl)nn1 + CC[C@@]1(O)C(=O)OCc2c1cc1n(c2=O)Cc2cc3c(CN(C)C)c(O)ccc3nc2-1 , what is it?
3.71

Next compound up: CC1COCCN1c1cc(-c2ccnn2C)c2ccnc(-c3ccn[nH]3)c2n1 (stereo unspecified) + CC[C@@]1(O)C(=O)OCc2c1cc1n(c2=O)Cc2cc3c(CN(C)C)c(O)ccc3nc2-1
1.64

What do we get for Cc1cc(C)c(CNC(=O)c2cc(-c3ccc(CN4CCOCC4)cc3)cc3c2cnn3C2CCCC2)c(=O)[nH]1 + CC[C@@]1(O)C(=O)OCc2c1cc1n(c2=O)Cc2cc3c(CN(C)C)c(O)ccc3nc2-1 ?
22.6

And then CC(C)n1c(=O)n(C)c2cnc3cc(F)c(-c4ccc(OCCCN5CCCCC5)nc4)cc3c21 + CC[C@@]1(O)C(=O)OCc2c1cc1n(c2=O)Cc2cc3c(CN(C)C)c(O)ccc3nc2-1 , what is it?
3.44

Continue with [2H]c1nc(C)nc([2H])c1-c1cc(NC[C@@H](C)c2cccc3c(C(=O)NC)ccnc23)ncn1 + CC[C@@]1(O)C(=O)OCc2c1cc1n(c2=O)Cc2cc3c(CN(C)C)c(O)ccc3nc2-1
26
